Data credit: patent US10722520B2

Target: CTX-M-15 (Escherichia coli)
Sequence (Q9EXV5 29-291, species assumed): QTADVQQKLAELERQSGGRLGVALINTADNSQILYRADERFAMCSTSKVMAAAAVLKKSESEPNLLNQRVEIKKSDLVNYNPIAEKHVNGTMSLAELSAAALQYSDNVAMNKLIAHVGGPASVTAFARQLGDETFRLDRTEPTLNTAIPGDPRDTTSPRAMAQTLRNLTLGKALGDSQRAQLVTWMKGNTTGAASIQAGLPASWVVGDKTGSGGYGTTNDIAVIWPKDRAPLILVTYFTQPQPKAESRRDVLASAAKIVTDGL
Conditions: read-out: IC50 β-lactamase CTX-M-15; class (A); nitrocefin 200 μM, 30-min pre-incubation, enzyme 0.4 nM
Binary call on IC50 with cut-off 0.8 nM: strictly below means 1 (yes), and equality or higher means 0 (no).

Ask | Say whether its IC50 is strictly beneath 0.8 nM. Entry: NC(=O)c1nn(C2=CC3CN(C2)C(=O)N3OS(=O)(=O)[O-])cc1F.[Na+] (stereo not shown)
Reply | 1 (yes)

Ask | Now the compound O=C([O-])CCc1cn(C2=CC3CN(C2)C(=O)N3OS(=O)(=O)[O-])nn1.[Na+].[Na+] (stereo not shown)
Reply | 0 (no)

Ask | Follow-up entry: O=C1N2CC(n3ccc(-c4ncco4)n3)=CC(C2)N1OS(=O)(=O)[O-].[Na+] (stereo not shown)
Reply | 1 (yes)
